- experimental.system: N-His-Tb-BIR3(241-356, XIAP) (Homo sapiens)
- Sequence (P98170 241-356): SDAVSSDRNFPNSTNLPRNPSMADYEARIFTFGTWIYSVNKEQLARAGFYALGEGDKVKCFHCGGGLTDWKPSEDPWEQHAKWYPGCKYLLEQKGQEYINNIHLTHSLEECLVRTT
- procedure.text: XIAP-BIR3 SMAC Peptide Fluorescence Polarization Assay (FPA)
- Assay type: binding
endpoint: IC50

Some entries whose results are on file:
compound	IC50
CN[C@@H](C)C(=O)N[C@H](C(=O)N1C[C@@H]2C[C@H]1C(=O)N[C@@H](Cc1ccc3ccccc3c1)C(=O)N[C@H](C(=O)NS(=O)(=O)C(F)(F)F)Cc1ccc(cc1)OCc1cn(nn1)[C@H]1C[C@@H](C(=O)N[C@@H](Cc3ccc4ccccc4c3)C(=O)N[C@H](C(=O)NS(=O)(=O)C(F)(F)F)Cc3ccc(cc3)OCc3cn2nn3)N(C(=O)[C@@H](NC(=O)[C@H](C)NC)C(C)(C)C)C1)C(C)(C)C [Compound 1007]	50 to 100 nM
CN[C@@H](C)C(=O)N[C@H](C(=O)N1C[C@@H]2C[C@H]1C(=O)N[C@@H](Cc1ccc(C(F)(F)F)cc1)C(=O)N[C@H](C(=O)O)Cc1ccc(cc1)COc1cn(nn1)[C@H]1C[C@@H](C(=O)N[C@@H](Cc3ccc(C(F)(F)F)cc3)C(=O)N[C@H](C(=O)O)Cc3ccc(cc3)OCc3cn2nn3)N(C(=O)[C@@H](NC(=O)[C@H](C)NC)C(C)C)C1)C(C)C [Compound 113]	50 to 100 nM

Consider the record given below.
Consider the compound CN[C@@H](C)C(=O)N[C@@H](CC1CCCCC1)C(=O)N1C[C@@H]2C[C@H]1C(=O)N[C@@H](Cc1ccccc1)C(=O)N[C@H](C(=O)O)Cc1ccc(cc1)OCc1cn(nn1)[C@H]1C[C@@H](C(=O)N[C@@H](Cc3ccccc3)C(=O)N[C@H](C(=O)O)Cc3ccc(cc3)OCc3cn2nn3)N(C(=O)[C@H](CC2CCCCC2)NC(=O)[C@H](C)NC)C1 [Compound 109] . State its measured IC50.
< 50 nM

----------
- experimental.system: His-BIR2-3 (125-356, C202A/C213G, XIAP) (Homo sapiens, UniProt P98170, C202A/C213G)
- Construct: additions of His-BIR2-3 (125-356, C202A/C213G, XIAP), fluorescein labeled dimeric SMAC peptide
- Sequence (P98170 125-356 C202A/C213G): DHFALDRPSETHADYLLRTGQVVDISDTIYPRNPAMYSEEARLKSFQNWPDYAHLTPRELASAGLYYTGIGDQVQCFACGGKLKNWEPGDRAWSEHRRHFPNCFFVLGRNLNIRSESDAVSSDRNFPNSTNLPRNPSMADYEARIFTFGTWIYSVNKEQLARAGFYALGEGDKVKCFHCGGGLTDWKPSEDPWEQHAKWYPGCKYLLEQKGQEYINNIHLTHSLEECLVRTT
- procedure.text: XIAP-BIR2-3 Dimeric SMAC Peptide Homogeneous Time Resolved Fluorescence (HTRF) Assay
- conditions: XIAP BIR2-3, HTRF, Table 4
pIC50: −log10 of the molar value.
# key: entry, value: pIC50

Some entries whose results are on file:
molecule	pIC50
CN[C@@H](C)C(=O)N[C@H](C(=O)N1C[C@@H]2C[C@H]1C(=O)N[C@@H](Cc1ccc3ccccc3c1)C(=O)N[C@H](C(=O)O)Cc1ccc(cc1)OCc1cn(nn1)[C@H]1C[C@@H](C(=O)N[C@@H](Cc3ccc4ccccc4c3)C(=O)N[C@H](C(=O)NS(=O)(=O)C3CC3)Cc3ccc(cc3)OCc3cn2nn3)N(C(=O)[C@@H](NC(=O)[C@H](C)NC)C(C)(C)C)C1)C(C)(C)C [Compound 147]	8.00 to 9.00
CN[C@@H](C)C(=O)N[C@H](C(=O)N1C[C@@H]2C[C@H]1C(=O)N[C@@H](Cc1ccc3ccccc3c1)C(=O)N[C@H](C(=O)O)Cc1ccc(cc1)OCc1cn(nn1)[C@H]1C[C@@H](C(=O)N[C@@H](Cc3ccc4ccccc4c3)C(=O)N[C@H](C(=O)NS(=O)(=O)c3ccc4ccccc4c3)Cc3ccc(cc3)OCc3cn2nn3)N(C(=O)[C@@H](NC(=O)[C@H](C)NC)C(C)(C)C)C1)C(C)(C)C [Compound 1039]	8.00 to 9.00
CN[C@@H](C)C(=O)N[C@H](C(=O)N1C[C@@H]2C[C@H]1C(=O)N[C@@H](Cc1ccc3ccccc3c1)C(=O)N[C@H](C(=O)O)Cc1ccc(cc1)OCc1cn(nn1)[C@H]1C[C@@H](C(=O)N[C@@H](Cc3ccc4ccccc4c3)C(=O)N[C@H](C(=O)NCC(=O)O)Cc3ccc(cc3)OCc3cn2nn3)N(C(=O)[C@@H](NC(=O)[C@H](C)NC)C(C)(C)C)C1)C(C)(C)C [Compound 1018]	8.00 to 9.00

Consider the molecule CNC(C)C(=O)NC(C(=O)N1CC2CC1C(=O)NC(Cc1ccc3ccccc3c1)C(=O)NC(C(=O)O)Cc1ccc(cc1)OCc1cn(nn1)C1CC(C(=O)NC(Cc3ccc4ccccc4c3)C(=O)NC(C(=O)O)c3ccc(cc3)OCc3cn2nn3)N(C(=O)C(NC(=O)C(C)NC)C(C)(C)C)C1)C(C)(C)C (centres unmarked) [Compound 1013] . State its measured pIC50.
≥ 9.00

Consider the molecule CN[C@@H](C)C(=O)N[C@H](C(=O)N1C[C@@H]2C[C@H]1C(=O)N[C@@H](Cc1ccc3ccccc3c1)C(=O)N[C@H](C(=O)O)Cc1ccc(cc1)OCc1cn(nn1)[C@H]1C[C@@H](C(=O)N[C@@H](Cc3ccc4ccccc4c3)C(=O)N[C@H](C(=O)O)Cc3ccc(cc3)OCCc3cn2nn3)N(C(=O)[C@@H](NC(=O)[C@H](C)NC)C(C)(C)C)C1)C(C)(C)C [Compound 1017] . State its measured pIC50.
≥ 9.00

----------
# key: entry, value: pIC50
- experimental.system: N-His-Tb-BIR3(241-356, XIAP) (Homo sapiens)
- procedure.text: XIAP-BIR3 SMAC Peptide Fluorescence Polarization Assay (FPA)
- Format: binding
pIC50: −log10 of the molar value.

Some entries whose results are on file:
molecule.smiles	pIC50
CN[C@@H](C)C(=O)N[C@H](C(=O)N1C[C@@H]2C[C@H]1C(=O)N[C@@H](Cc1ccccc1)C(=O)N[C@H](C(=O)O)Cc1ccc(cc1)OCc1cn(nn1)[C@H]1C[C@@H](C(=O)N[C@@H](Cc3ccc4ccccc4c3)C(=O)N[C@H](C(=O)OC)Cc3ccc(cc3)OCc3cn2nn3)N(C(=O)[C@@H](NC(=O)[C@H](C)NC)C(C)(C)C)C1)C(C)(C)C	7.00 to 7.30
CN[C@@H](C)C(=O)N[C@H](C(=O)N1C[C@@H]2C[C@H]1C(=O)N[C@@H](Cc1ccccc1)C(=O)N[C@H](C(=O)O)Cc1ccc(cc1)OCCCn1cc(nn1)-c1ccc(cc1)-c1cn(nn1)[C@H]1C[C@@H](C(=O)N[C@@H](Cc3ccccc3)C(=O)N[C@H](C(=O)O)Cc3ccc(cc3)OCCCn3cc(nn3)-c3ccc(cc3)-c3cn2nn3)N(C(=O)[C@@H](NC(=O)[C@H](C)NC)C(C)C)C1)C(C)C	> 7.30
CN[C@@H](C)C(=O)N[C@H](C(=O)N1C[C@@H]2C[C@H]1C(=O)N[C@@H](Cc1csc3ccccc13)C(=O)N[C@H](C(=O)O)Cc1ccc(cc1)OCc1cn(nn1)[C@H]1C[C@@H](C(=O)N[C@@H](Cc3csc4ccccc34)C(=O)N[C@H](C(=O)O)Cc3ccc(cc3)OCc3cn2nn3)N(C(=O)[C@@H](NC(=O)[C@H](C)NC)C(C)C)C1)C(C)C	> 7.30
CN[C@@H](C)C(=O)N[C@H](C(=O)N1C[C@@H]2C[C@H]1C(=O)N[C@@H](Cc1ccccc1)C(=O)N[C@H](C(=O)O)Cc1ccc(cc1)OCc1cn(nn1)[C@H]1C[C@@H](C(=O)N[C@@H](Cc3ccc4ccccc4c3)C(=O)N[C@H](C(=O)O)Cc3ccc(cc3)OCc3cn2nn3)N(C(=O)[C@@H](NC(=O)[C@H](C)NC)C(C)(C)C)C1)C(C)(C)C	> 7.30
CN[C@@H](C)C(=O)N[C@H](C(=O)N1C[C@@H]2C[C@H]1C(=O)N[C@@H](CC1CCCCC1)C(=O)N[C@H](C(=O)O)Cc1ccc(cc1)OCc1cn(nn1)[C@H]1C[C@@H](C(=O)N[C@@H](CC3CCCCC3)C(=O)N[C@H](C(=O)O)Cc3ccc(cc3)OCc3cn2nn3)N(C(=O)[C@@H](NC(=O)[C@H](C)NC)C(C)C)C1)C(C)C	< 7.00

Consider the compound `C=CCOc1ccc(C[C@@H]2NC(=O)[C@@H]3C[C@@H](CN3C(=O)[C@@H](NC(=O)[C@H](C)NC)C(C)C)n3cc(nn3)COc3ccc(cc3)C[C@@H](C(=O)O)NC(=O)[C@H](Cc3ccc(OCC=C)cc3)NC(=O)[C@@H]3C[C@@H](CN3C(=O)[C@@H](NC(=O)[C@H](C)NC)C(C)C)n3cc(nn3)COc3ccc(cc3)C[C@@H](C(=O)O)NC2=O)cc1` . State its measured pIC50.
7.00 to 7.30

----------
- experimental.system: His-BIR2-3 (125-356, C202A/C213G, XIAP) (Homo sapiens, UniProt P98170, C202A/C213G)
- Construct: additions of His-BIR2-3 (125-356, C202A/C213G, XIAP), fluorescein labeled dimeric SMAC peptide
- procedure.text: XIAP-BIR2-3 Dimeric SMAC Peptide Homogeneous Time Resolved Fluorescence (HTRF) Assay
- conditions: XIAP BIR2-3, HTRF, Table 4
pIC50: −log10 of the molar value.
endpoint: pIC50

Consider the compound `CN[C@@H](C)C(=O)N[C@H](C(=O)N1C[C@@H]2C[C@H]1C(=O)N[C@@H](Cc1ccc3ccccc3c1)C(=O)N[C@H](C(=O)O)Cc1ccc(cc1)OCCCc1cn(nn1)[C@H]1C[C@@H](C(=O)N[C@@H](Cc3ccc4ccccc4c3)C(=O)N[C@H](C(=O)O)Cc3ccc(cc3)OCCCc3cn2nn3)N(C(=O)[C@@H](NC(=O)[C@H](C)NC)C(C)(C)C)C1)C(C)(C)C` . State its measured pIC50.
8.00 to 9.00

Consider the compound `CN[C@@H](C)C(=O)N[C@H](C(=O)N1C[C@@H]2C[C@H]1C(=O)N[C@@H](Cc1ccc3ccccc3c1)C(=O)N[C@H](C(=O)O)Cc1ccc(cc1)OCc1cn(nn1)[C@H]1C[C@@H](C(=O)N[C@@H](Cc3ccc4ccccc4c3)C(=O)N[C@H](C(=O)NS(=O)(=O)CCCNC(C)=O)Cc3ccc(cc3)OCc3cn2nn3)N(C(=O)[C@@H](NC(=O)[C@H](C)NC)C(C)(C)C)C1)C(C)(C)C` . State its measured pIC50.
≥ 9.00

Consider the compound `CN[C@@H](C)C(=O)N[C@H](C(=O)N1C[C@@H]2C[C@H]1C(=O)N[C@@H](Cc1ccc3ccccc3c1)C(=O)N[C@H](C(=O)O)Cc1ccc(cc1)OCc1cn(nn1)[C@H]1C[C@@H](C(=O)N[C@@H](Cc3ccc4ccccc4c3)C(=O)N[C@H](C(=O)N3CC(C(=O)O)C3)Cc3ccc(cc3)OCc3cn2nn3)N(C(=O)[C@@H](NC(=O)[C@H](C)NC)C(C)(C)C)C1)C(C)(C)C` . State its measured pIC50.
8.00 to 9.00
